target: hOX1R (Homo sapiens); test: hOX1R FLIPR Ca2+ flux assay; conditions: CHO cells expressing the receptor; agonist 70 pM Ala-6,12 human orexin-A

molecule | qualifier | IC50 / µM
N#Cc1ccnc(N2CC[C@@H]3CCN(C(=O)c4cccnc4CC(F)(F)F)C[C@@H]32)c1 [Example E11] | = | 10
CCOC(=O)[C@@H]1C[C@H]2CCN(c3cc(C#N)ccn3)[C@H]2CN1C(=O)c1ccccc1-n1nccn1 [Example G2] | ≥ | 10
CCOc1ccccc1C(=O)N1CC[C@H]2CCN(c3cc(C#N)ccn3)[C@H]2C1 [Example E1] | = | 10
N#Cc1ccnc(N2CC[C@@H]3CCN(C(=O)c4ccccc4C4CCC4)C[C@@H]32)c1 [Example E15] | = | 9.72
N#Cc1ccnc(N2CC[C@@H]3CCN(C(=O)c4cccnc4OCC(F)(F)F)C[C@@H]32)c1 [Example E7] | = | 10
CN(C)c1ccnc(N2CC[C@@H]3CCN(C(=O)c4ccccc4-n4nccn4)C[C@@H]32)c1C#N [Example A17] | ≥ | 10
COC(=O)c1nc(N2CC[C@H]3CCN(C(=O)c4ccccc4-n4nccn4)C[C@H]32)sc1C (stereo in doubt) [Example B12] | = | 10

----------
Listing of recorded IC50 by entry.
biological target: hOX1R (Homo sapiens, UniProt O43613); test: hOX1R FLIPR Ca2+ flux assay; details: CHO cells expressing the receptor; agonist 70 pM Ala-6,12 human orexin-A

compound | qualifier | IC50 [µM]
N#Cc1ccnc(N2CC[C@H]3CCN(C(=O)c4ccccc4OC(F)(F)F)C[C@H]32)c1 (stereo in doubt) | = | 10
N#Cc1ccnc(N2CC[C@H]3CCN(C(=O)c4cccnc4-n4cccn4)C[C@H]32)c1 (stereo in doubt) | = | 10
CN(C)c1cc(Cl)nc(N2CC[C@@H]3CCN(C(=O)c4ccccc4-n4nccn4)C[C@@H]32)n1 | = | 3.24
N#Cc1ccnc(N2CC[C@@H]3CCN(C(=O)c4ccccc4CC(F)F)C[C@@H]32)c1 | = | 10
O=C(c1ccccc1-n1nccn1)N1CC[C@H]2CCN(c3ncnc4sccc34)[C@H]2C1 | ≥ | 10
N#Cc1ccnc(N2CC[C@H]3CCN(C(=O)c4ccccc4-n4nccn4)C[C@H]32)c1 | = | 10
COc1cc(OC)nc(N2CC[C@@H]3CCN(C(=O)c4ccccc4-n4nccn4)C[C@@H]32)n1 | = | 10
N#Cc1ccnc(N2CC[C@@H]3CCN(C(=O)c4ccccc4OC(F)F)C[C@@H]32)c1 | = | 10

----------
biological target: human orexin-2 receptor (Homo sapiens (Human), UniProt O43614); assay: hOX2R FLIPR Ca2+ flux assay; conditions: CHO cells expressing the receptor; agonist 70 pM Ala-6,12 human orexin-A
Sequence (O43614 whole entry): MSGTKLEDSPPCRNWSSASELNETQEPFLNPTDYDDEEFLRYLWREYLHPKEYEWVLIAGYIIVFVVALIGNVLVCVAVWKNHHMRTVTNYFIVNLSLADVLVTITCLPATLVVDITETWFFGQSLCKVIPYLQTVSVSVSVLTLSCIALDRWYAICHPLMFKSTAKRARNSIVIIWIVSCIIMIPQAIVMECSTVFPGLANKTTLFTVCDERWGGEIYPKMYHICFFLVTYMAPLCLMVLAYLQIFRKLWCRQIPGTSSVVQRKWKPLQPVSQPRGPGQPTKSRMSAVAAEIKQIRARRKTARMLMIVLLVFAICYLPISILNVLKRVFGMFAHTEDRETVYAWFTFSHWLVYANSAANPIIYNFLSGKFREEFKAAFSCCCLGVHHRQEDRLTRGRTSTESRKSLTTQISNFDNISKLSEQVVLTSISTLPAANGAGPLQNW
pIC50: −log10 of the molar value.

compound | pIC50
N#Cc1ccnc(N2CC[C@@H]3CCN(C(=O)c4ccccc4CC(F)(F)F)C[C@@H]32)c1 | 7.32
CCOC(=O)[C@@H]1C[C@H]2CCN(c3cc(C#N)ccn3)[C@H]2CN1C(=O)c1ccccc1-n1nccn1 | 6.70
O=C(c1ccccc1-n1nccn1)N1CC[C@H]2CCN(c3ccnc4ccccc34)[C@H]2C1 | 5.47
CCCc1ccccc1C(=O)N1CC[C@H]2CCN(c3cc(C#N)ccn3)[C@H]2C1 [Example E2] | 7.23
Cc1ncc(N2CC[C@@H]3CCN(C(=O)c4ccccc4-n4nccn4)C[C@@H]32)nc1C | 6.02
O=C(c1ccccc1-n1nccn1)N1CC[C@H]2CCN(c3ncccn3)[C@H]2C1 | 5.22
N#Cc1ccnc(N2CC[C@@H]3CCN(C(=O)c4ccccc4C4CCC4)C[C@@H]32)c1 | 7.51
N#Cc1ccnc(N2CC[C@@H]3CCN(C(=O)c4ccccc4-n4cccn4)C[C@@H]32)c1 | 6.59
N#Cc1ccnc(N2CC[C@H]3CCN(C(=O)c4cccnc4-n4cccn4)C[C@H]32)c1 (stereo in doubt) | 7.43
N#Cc1ccnc(N2CC[C@@H]3CCN(C(=O)c4ccccc4-c4ncccn4)C[C@@H]32)c1 | 7.00
N#Cc1ccnc(N2CC[C@@H]3CCN(C(=O)c4nccnc4N4CCCC4)C[C@@H]32)c1 | 5.00
N#Cc1ccnc(N2CC[C@@H]3CCN(C(=O)c4cccnc4OCC(F)F)C[C@@H]32)c1 [Example D1] | 6.83
N#Cc1ccnc(N2CC[C@@H]3CCN(C(=O)c4ccccc4CC(F)F)C[C@@H]32)c1 | 6.29
N#Cc1ccnc(N2CC[C@@H]3C[C@@H](CO)N(C(=O)c4ccccc4-n4nccn4)C[C@@H]32)c1 [Example G4] | 5.68
O=C(c1ccccc1-n1nccn1)N1CC[C@H]2CCN(c3nccc4cccnc34)[C@H]2C1 | 6.13
O=C(c1ccccc1-n1nccn1)N1CC[C@H]2CCN(c3nccn4ccnc34)[C@H]2C1 | 5.97

----------
Each entry below carries its reported IC50.
target: hOX1R (Homo sapiens, UniProt O43613); assay: hOX1R FLIPR Ca2+ flux assay; assay type: cell-based; details: CHO cells expressing the receptor; agonist 70 pM Ala-6,12 human orexin-A

molecule | reading_unit | qualifier | IC50
O=C(c1ccccc1-n1nccn1)N1CC[C@H]2CCN(c3ncnc4[nH]ccc34)[C@H]2C1 [Example B7] | µM | = | 10
N#Cc1ccnc(N2CC[C@@H]3CCN(C(=O)c4ccccc4-n4nccn4)C[C@@H]32)n1 [Example A3] | µM | = | 10
N#Cc1ccnc(N2CC[C@@H]3C[C@@H](CO)N(C(=O)c4ccccc4-n4nccn4)C[C@@H]32)c1 [Example G1] | µM | = | 2.75
NC(=O)c1ccnc(N2CC[C@@H]3CCN(C(=O)c4ccccc4-n4nccn4)C[C@@H]32)c1 [Example F1] | µM | ≥ | 10
COc1ccnc(N2CC[C@@H]3CCN(C(=O)c4ccccc4-n4nccn4)C[C@@H]32)c1 [Example B3] | µM | ≥ | 10
N#Cc1ccnc(N2CC[C@H]3CCN(C(=O)c4ccccc4-n4ncnn4)C[C@H]32)c1 (stereo in doubt) [Example D2] | µM | = | 10
Cc1ccc(C)n1-c1ccc(N2CC[C@@H]3CCN(C(=O)c4ccccc4-n4nccn4)C[C@@H]32)nn1 [Example A11] | µM | = | 10

----------
target: hOX1R (Homo sapiens); test: hOX1R FLIPR Ca2+ flux assay; conditions: CHO cells expressing the receptor; agonist 70 pM Ala-6,12 human orexin-A
Measured IC50, listed per entry.

compound | reading_unit | qualifier | IC50
O=C(c1ccccc1-n1nccn1)N1CC[C@H]2CCN(c3ncccn3)[C@H]2C1 | µM | = | 10
COC(=O)c1ccc(N2CC[C@@H]3CCN(C(=O)c4ccccc4-n4nccn4)C[C@@H]32)nn1 | µM | ≥ | 10
CC(C)(O)c1ccnc(N2CC[C@@H]3CCN(C(=O)c4ccccc4-n4nccn4)C[C@@H]32)c1 | µM | = | 10
Cc1ccnc(N2CC[C@@H]3CCN(C(=O)c4ccccc4-n4nccn4)C[C@@H]32)c1 | µM | ≥ | 10
CC(O)(c1cncc(N2CC[C@@H]3CCN(C(=O)c4ccccc4-n4nccn4)C[C@@H]32)n1)C(F)(F)F (stereo partly shown) | µM | ≥ | 10
Cc1ncc(N2CC[C@@H]3CCN(C(=O)c4ccccc4-n4nccn4)C[C@@H]32)nc1C | µM | = | 10
N#Cc1ccnc(N2CC[C@@H]3CCN(C(=O)c4ncccc4-n4nccn4)C[C@@H]32)c1 | µM | ≥ | 10
C[C@H]1C[C@H]2CCN(c3cc(C#N)ccn3)[C@H]2CN1C(=O)c1ccccc1-n1nccn1 | µM | = | 2.37
COC(=O)c1csc(N2CC[C@@H]3CCN(C(=O)c4ccccc4-n4nccn4)C[C@@H]32)n1 | µM | = | 10
CCCc1ccccc1C(=O)N1CC[C@H]2CCN(c3cc(C#N)ccn3)[C@H]2C1 [Example E2] | µM | = | 10
Cc1cc(C#N)nc(N2CC[C@@H]3CCN(C(=O)c4ccccc4-n4nccn4)C[C@@H]32)n1 | µM | = | 10
O=C(c1ccccc1-n1nccn1)N1CC[C@H]2CCN(c3ccc4ccccc4n3)[C@H]2C1 | µM | = | 1.04
COc1cc(N2CC[C@@H]3CCN(C(=O)c4ccccc4-n4nccn4)C[C@@H]32)ncc1C#N | µM | ≥ | 10
N#Cc1ccnc(N2CC[C@@H]3CCN(C(=O)c4ccc(F)cc4-n4nccn4)C[C@@H]32)c1 | µM | ≥ | 10
CC(C)Oc1ncccc1C(=O)N1CC[C@H]2CCN(c3cc(C#N)ccn3)[C@H]2C1 | µM | = | 10
CC(C)(O)c1coc(N2CC[C@@H]3CCN(C(=O)c4ccccc4-n4nccn4)C[C@@H]32)n1 | µM | = | 10
N#Cc1ccnc(N2CC[C@@H]3CCN(C(=O)c4nccnc4N4CCCC4)C[C@@H]32)c1 | µM | = | 10
N#Cc1ccnc(N2CC[C@@H]3CCN(C(=O)c4ccccc4-n4nccn4)C[C@@H]32)c1Cl | µM | ≥ | 10
O=C(c1ccccc1-n1nccn1)N1CC[C@H]2CCN(c3nccn4ccnc34)[C@H]2C1 | µM | ≥ | 10
O=C(c1ccccc1-n1nccn1)N1CC[C@H]2CCN(c3ncnc4scnc34)[C@H]2C1 | µM | ≥ | 10
N#Cc1ccnc(N2CC[C@@H]3CCN(C(=O)c4ncccc4-c4ccccc4)C[C@@H]32)c1 | µM | ≥ | 10
N#Cc1ccnc(N2CC[C@@H]3CCN(C(=O)c4ccccc4OCC(F)(F)F)C[C@@H]32)c1 | µM | ≥ | 10
O=C(c1ccccc1-n1nccn1)N1CC[C@H]2CCN(c3nccc4ccccc34)[C@H]2C1 | µM | = | 1.66
CC(C)(O)c1cccc(N2CC[C@@H]3CCN(C(=O)c4ccccc4-n4nccn4)C[C@@H]32)c1 | µM | = | 10
N#Cc1ccnc(N2CC[C@@H]3CCN(C(=O)c4ccccc4C4CC4(F)F)C[C@@H]32)c1 (stereo partly shown) | µM | = | 10
CCOc1ncccc1C(=O)N1CC[C@H]2CCN(c3cc(C#N)ccn3)[C@H]2C1 | µM | = | 10
N#Cc1cc(Cl)ncc1N1CC[C@@H]2CCN(C(=O)c3ccccc3-n3nccn3)C[C@@H]21 | µM | ≥ | 10
N#Cc1ccnc(N2CC[C@@H]3CCN(C(=O)c4ccccc4N4CCCC4)C[C@@H]32)c1 | µM | = | 10
N#Cc1ccnc(N2CC[C@@H]3CCN(C(=O)c4ccccc4C4CC4)C[C@@H]32)c1 | µM | = | 10
Cc1cnc(C)c(N2CC[C@@H]3CCN(C(=O)c4ccccc4-n4nccn4)C[C@@H]32)n1 | µM | ≥ | 10
O=C(c1ccccc1-n1nccn1)N1CC[C@H]2CCN(c3nccn4nccc34)[C@H]2C1 | µM | = | 10

// data source = patent US9938276B2
